- target-or-system: Progesterone receptor (Rattus norvegicus)
- Sequence (whole entry): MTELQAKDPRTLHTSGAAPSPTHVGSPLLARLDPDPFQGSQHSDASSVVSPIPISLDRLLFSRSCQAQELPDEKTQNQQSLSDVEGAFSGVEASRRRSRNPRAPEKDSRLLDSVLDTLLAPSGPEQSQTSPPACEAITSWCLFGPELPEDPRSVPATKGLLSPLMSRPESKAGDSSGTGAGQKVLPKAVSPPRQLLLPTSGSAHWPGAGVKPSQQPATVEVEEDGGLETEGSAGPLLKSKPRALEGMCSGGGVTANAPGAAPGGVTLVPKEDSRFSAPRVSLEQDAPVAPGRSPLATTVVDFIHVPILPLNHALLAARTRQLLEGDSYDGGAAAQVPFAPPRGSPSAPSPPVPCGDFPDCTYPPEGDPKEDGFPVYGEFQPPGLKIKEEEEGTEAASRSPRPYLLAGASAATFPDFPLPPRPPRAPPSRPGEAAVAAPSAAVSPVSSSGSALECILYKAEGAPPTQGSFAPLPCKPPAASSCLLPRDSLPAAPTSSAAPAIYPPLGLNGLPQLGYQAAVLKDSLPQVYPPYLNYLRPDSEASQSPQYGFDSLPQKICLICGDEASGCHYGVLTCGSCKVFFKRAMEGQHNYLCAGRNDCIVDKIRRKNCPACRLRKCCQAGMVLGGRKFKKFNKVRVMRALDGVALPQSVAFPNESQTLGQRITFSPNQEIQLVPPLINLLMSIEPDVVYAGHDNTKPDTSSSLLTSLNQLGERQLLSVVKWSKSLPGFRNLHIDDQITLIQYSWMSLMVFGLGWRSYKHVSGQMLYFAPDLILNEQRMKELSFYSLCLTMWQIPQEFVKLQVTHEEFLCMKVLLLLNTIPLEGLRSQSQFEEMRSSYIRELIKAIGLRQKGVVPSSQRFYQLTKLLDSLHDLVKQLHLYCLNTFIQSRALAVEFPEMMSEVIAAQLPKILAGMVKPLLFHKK
- assay-method-text: Effective progestational dose on oral administration in rat decidualization model
- Assay type: functional, organism-based
Please provide measured ED50 for the entries that follow.
Give bare numbers, in mg/kg.

State, in one line, measured ED50 of "N#Cc1ccc(-c2ccc3c(c2)C2(CCCCC2)C(S)=N3)o1"
1

Answer with the recorded ED50 of "N#Cc1ccc(-c2ccc3c(c2)C2(CCCCC2)C(S)=N3)s1" only.
0.1

Identify measured ED50 associated with "N#Cc1cc(F)cc(-c2ccc3c(c2)C2(CCCCC2)C(S)=N3)c1"
0.1

Hello, I would appreciate it if you could give ED50 for each entry below.
1. Cc1cc(C#N)sc1-c1ccc2c(c1)C1(CCCCC1)C(S)=N2
2. N#Cc1cccc(-c2ccc3c(c2)C2(CCCCC2)C(=S)N3)c1

1
0.4

====

- target-or-system: Glucocorticoid receptor (Homo sapiens, UniProt P04150)
- Sequence (P04150 whole entry): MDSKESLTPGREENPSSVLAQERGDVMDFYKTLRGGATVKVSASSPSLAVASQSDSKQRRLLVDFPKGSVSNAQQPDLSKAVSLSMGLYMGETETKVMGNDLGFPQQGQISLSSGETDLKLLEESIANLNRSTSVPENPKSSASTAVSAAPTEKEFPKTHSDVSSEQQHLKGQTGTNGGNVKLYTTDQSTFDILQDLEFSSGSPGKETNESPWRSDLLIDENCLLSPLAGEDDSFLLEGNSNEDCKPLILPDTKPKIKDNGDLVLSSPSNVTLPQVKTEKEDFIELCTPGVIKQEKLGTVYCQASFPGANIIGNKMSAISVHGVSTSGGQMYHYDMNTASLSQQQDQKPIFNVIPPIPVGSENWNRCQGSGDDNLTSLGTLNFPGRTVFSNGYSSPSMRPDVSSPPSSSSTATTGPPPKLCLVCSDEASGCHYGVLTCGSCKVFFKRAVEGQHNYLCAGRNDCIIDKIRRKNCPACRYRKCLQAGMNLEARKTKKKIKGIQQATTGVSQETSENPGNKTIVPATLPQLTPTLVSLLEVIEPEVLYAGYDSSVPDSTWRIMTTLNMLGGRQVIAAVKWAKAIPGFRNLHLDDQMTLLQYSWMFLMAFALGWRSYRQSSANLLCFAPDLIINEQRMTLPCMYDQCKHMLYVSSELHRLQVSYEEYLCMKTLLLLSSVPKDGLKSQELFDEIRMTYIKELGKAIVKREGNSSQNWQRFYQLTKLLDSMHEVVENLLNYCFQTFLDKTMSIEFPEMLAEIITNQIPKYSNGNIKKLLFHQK
- assay-method-text: Inhibitory activity against glucocorticoid receptor in human lung A549 cells
measured-attribute: pIC50
Numbers only, as −log10 of the molar value.

Give a short answer stating reported pIC50 for "N#Cc1cc(F)cc(-c2ccc3c(c2)C2(CCCCC2)C(S)=N3)c1" .
7.46

====

- target-or-system: Androgen receptor (Mus musculus, UniProt P19091)
- Sequence (P19091 whole entry): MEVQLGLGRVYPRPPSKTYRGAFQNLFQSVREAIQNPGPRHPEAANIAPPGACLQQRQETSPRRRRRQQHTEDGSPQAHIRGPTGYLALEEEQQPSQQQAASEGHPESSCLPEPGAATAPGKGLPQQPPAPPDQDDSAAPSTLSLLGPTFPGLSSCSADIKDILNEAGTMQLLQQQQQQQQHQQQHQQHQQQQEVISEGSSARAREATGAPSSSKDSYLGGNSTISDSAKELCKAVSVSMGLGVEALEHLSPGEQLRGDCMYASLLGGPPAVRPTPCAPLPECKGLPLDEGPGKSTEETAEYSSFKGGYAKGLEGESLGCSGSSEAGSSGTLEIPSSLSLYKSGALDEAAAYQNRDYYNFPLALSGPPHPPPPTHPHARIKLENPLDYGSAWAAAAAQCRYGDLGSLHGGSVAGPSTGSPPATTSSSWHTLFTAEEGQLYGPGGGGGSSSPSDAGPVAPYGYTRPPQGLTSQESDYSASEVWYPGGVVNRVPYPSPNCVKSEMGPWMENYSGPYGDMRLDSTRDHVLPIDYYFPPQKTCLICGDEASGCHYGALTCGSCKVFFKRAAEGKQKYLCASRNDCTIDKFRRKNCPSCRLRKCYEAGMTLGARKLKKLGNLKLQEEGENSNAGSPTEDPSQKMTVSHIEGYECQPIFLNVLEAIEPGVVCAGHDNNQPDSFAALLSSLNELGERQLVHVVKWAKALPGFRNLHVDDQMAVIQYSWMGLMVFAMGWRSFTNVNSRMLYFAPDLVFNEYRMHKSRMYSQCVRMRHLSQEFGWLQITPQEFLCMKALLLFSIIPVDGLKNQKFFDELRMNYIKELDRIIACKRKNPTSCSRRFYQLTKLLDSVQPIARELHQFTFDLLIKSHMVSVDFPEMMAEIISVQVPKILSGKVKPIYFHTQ
- assay-method-text: Inhibitory activity against Androgen receptor in mouse fibroblast L929 cells
measured-attribute: IC50

Quick one: give measured IC50 for "N#Cc1cc(F)cc(-c2ccc3c(c2)C2(CCCCC2)C(S)=N3)c1"
> 10 µM
